For each record, write down the corresponding Stability of Plant-Derived Cannabinoid Compounds in Powder Concentrate.
- PROTOCOL: Stability of cannabinoid entourage and Vitamin E components of the powder concentrate by LCMSMS
- Assay type: physicochemical
- CONDITION INFO: powder stored at 21-25° C.; 120 days
Write the value in mg/g powder as a bare number.

INPUT: // returns reported Stability of Plant-Derived Cannabinoid Compounds in Powder Concentrate for input CCCCCc1cc(O)c2c(c1)OC(C)(CCC=C(C)C)C=C2 (stereo not shown) [CBC, cannabichromene]
OUTPUT: 0.072

INPUT: // returns reported Stability of Plant-Derived Cannabinoid Compounds in Powder Concentrate for input CCCCCc1cc(O)c2c(c1)OC1(C)CCC3C1C2C3(C)C (stereo not shown) [CBL, cannabicyclol]
OUTPUT: 0.048

INPUT: // returns reported Stability of Plant-Derived Cannabinoid Compounds in Powder Concentrate for input CCCCCc1cc(O)c2c(c1)OC(C)(C)c1ccc(C)cc1-2 [CBN, cannabinol]
OUTPUT: 0.498

INPUT: // returns reported Stability of Plant-Derived Cannabinoid Compounds in Powder Concentrate for input CCCCCc1cc2c(c(O)c1C(=O)O)[C@@H]1C=C(C)CC[C@H]1C(C)(C)O2 [D9 THCA, delta-9-tetrahydrocannabinolic acid]
OUTPUT: 0.147

INPUT: // returns reported Stability of Plant-Derived Cannabinoid Compounds in Powder Concentrate for input C=C(C)[C@@H]1CCC(C)=C[C@H]1c1c(O)cc(CCC)cc1O [CBDV, cannabidivarin]
OUTPUT: 0.050

INPUT: // returns reported Stability of Plant-Derived Cannabinoid Compounds in Powder Concentrate for input C=C(C)[C@@H]1CCC(C)=C[C@H]1c1c(O)cc(CCCCC)cc1O [CBD, cannabidiol, reference compound]
OUTPUT: 5.80

INPUT: // returns reported Stability of Plant-Derived Cannabinoid Compounds in Powder Concentrate for input CCCCCc1cc(O)c2c(c1)OC(C)(C)[C@@H]1CCC(C)=C[C@@H]21 [D9 THC, delta-9-tetrahydrocannabinol, reference compound]
OUTPUT: 2.66

INPUT: // returns reported Stability of Plant-Derived Cannabinoid Compounds in Powder Concentrate for input C=C(C)[C@@H]1CCC(C)=C[C@H]1c1c(O)cc(CCCCC)c(C(=O)O)c1O [CBDA, cannabidiolic acid]
OUTPUT: 0.403

INPUT: // returns reported Stability of Plant-Derived Cannabinoid Compounds in Powder Concentrate for input CCCCCc1cc(O)c(C/C=C(\C)CCC=C(C)C)c(O)c1 [CBG, cannabigerol]
OUTPUT: 1.09

INPUT: // returns reported Stability of Plant-Derived Cannabinoid Compounds in Powder Concentrate for input CCCc1cc(O)c2c(c1)OC(C)(C)[C@@H]1CCC(C)=C[C@@H]21 [THCV, delta-9-tetrahydrocannabivarin]
OUTPUT: 0.658

Cited source for all entries: patent US20260130395A1
